Source of measurements: patent EP1977645A1

# EXPERIMENT_NOTES: log P determination (acidic)
# Format: physicochemical
MEASUREMENT_TYPE: logP

[in] Given the molecule "CNC(=S)N1CCO/C1=N\[C@@H](C)c1ccccc1F" , what is its reported logP?
[out] 3.18
